Each recorded value in this set is attributed to the RNAGym collection of RNA variant scans (doi:10.1073/pnas.2313332121).

B1: TPR 5TU (parent)
chain: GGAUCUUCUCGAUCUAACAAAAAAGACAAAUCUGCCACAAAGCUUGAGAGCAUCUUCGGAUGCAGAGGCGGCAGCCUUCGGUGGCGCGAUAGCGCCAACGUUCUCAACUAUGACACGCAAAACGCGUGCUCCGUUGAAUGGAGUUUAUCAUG

variants of: B1; assay: polymerase ribozyme fitness, log enrichment relative to wild type (log ratio); higher = more active; in vitro selection for triplet polymerase activity
Fewer inactive variants are shown than the library holds.
observable: polymerase ribozyme fitness (log ratio)
Write the value as a bare number.

These recorded examples may help you get a feel for the data.
{"variant.name": "G94A C105U C116U C125G", "observable": "polymerase ribozyme fitness (log ratio)", "reported.result": -0.0334}
{"variant.name": "G11U U53G C57G G59U G94A", "observable": "polymerase ribozyme fitness (log ratio)", "reported.result": -3.74}
{"variant.name": "G83U A113U", "observable": "polymerase ribozyme fitness (log ratio)", "reported.result": -2.14}
{"variant.name": "A91G U144G", "observable": "polymerase ribozyme fitness (log ratio)", "reported.result": -2.02}

Qu. Field request: polymerase ribozyme fitness (log ratio) | item: A47C C85U
Ans. -1.58

Qu. Field request: polymerase ribozyme fitness (log ratio) | item: C35G A115G
Ans. -3.92

Qu. Field request: polymerase ribozyme fitness (log ratio) | item: G124C A142U
Ans. -0.985

Qu. Field request: polymerase ribozyme fitness (log ratio) | item: C57U G59A C85U C95G
Ans. -2.02

Qu. Field request: polymerase ribozyme fitness (log ratio) | item: A12G U77C
Ans. -3.98

Qu. Field request: polymerase ribozyme fitness (log ratio) | item: U102G G124A
Ans. -2.85
